# Tested on: SNB-19 CNS
# run description: NCI tumour cell line growth inhibition, 48 h
Where a SMILES comes first, the peptide text is derived from it. The star is where a group is joined. Boc = CC(C)(C)OC(=O)*
observable: TGI

Query: Would you mind telling me what TGI value was observed for `O=C(O)Cn1ccc(=O)c2ccc([N+](=O)[O-])cc21` ?
Response: > 100 µM

Query: Name the reported TGI value associated with the molecule COc1ccc(C2Oc3c(cc(O)c(OC)c3C)[C@@H]2C)cc1OC (some centres not stated)
Response: > 100 µM

Query: Requested field: TGI. Item: `CCOC(=O)c1csc(NC(=O)CCN(CC)CC)n1`
Response: > 100 µM

Query: Need TGI, item `COC(=O)C1(C(=O)OC)CC2=C(S(=O)(=O)c3ccccc3)C[C@H](S(=O)(=O)c3ccccc3)[C@H]2C1`
Response: > 100 µM

Query: Consider the molecule CCOC(=O)CNC(=O)C(CSCc1ccc(Br)cc1)NC(=O)CCC(N)C(=O)OCC (configuration not stated) and give its measured TGI.
Response: > 50 µM

Query: Given the molecule `COc1ccc(CNc2cc(OC)c(OC)c(OC)c2)cc1` , what is its reported TGI?
Response: > 100 µM

Query: I would be grateful if you could share the reported TGI for COC(=O)CNC(=O)C(Cc1ccccc1)NC(=O)C(CCSC)NC(=O)C(Cc1ccc(O)cc1)NC(=O)OC(C)(C)C (configuration not stated) (Boc-YMFG-OMe; configuration not given here) .
Response: > 100 µM

Query: Please look up its TGI: `O=C(O)CSc1nnc(COc2ccc(Cl)cc2)n1-c1ccccc1`
Response: > 100 µM

Query: Dear colleague, I am looking for the recorded TGI of the following molecule: `COc1cc(-c2cc(=O)c3cc4c(cc3[nH]2)OCO4)cc(OC)c1O`
Response: > 10 µM

Query: Need TGI, item COC1C(CN[N+](=O)CC2OC3OC(C)(C)OC3C2OC)OC2OC(C)(C)OC21 (configuration not stated)
Response: > 100 µM

Query: For the molecule COCOC1/C=C/CCCCC2=C(C)C=C(C1)O2 (configuration not stated) , what TGI is on record?
Response: > 100 µM

Query: GET /values?readout=TGI&item= Cc1ccc(S(=O)(=O)C(CC(=O)N2CCCC2)C(=O)c2ccccc2)cc1 (configuration not stated)
Response: > 100 µM

----------
# System: UO-31 renal
# run description: NCI tumour cell line growth inhibition, 48 h
observable: TGI

Query: What value of TGI on UO-31 renal does `CC(C)CC(=O)[O-].CC(C)CC(=O)[O-].N.N.N.N.[Co+3].[O-][Cl+3]([O-])([O-])[O-]` have?
Response: > 100 µM

Query: Give TGI (UO-31 renal) of the following compound: `Cc1ccc(CS/C(=C\c2ccc([N+](=O)[O-])cc2)C(=O)c2ccc(F)cc2)cc1`
Response: 13.3 µM

Query: State its TGI on UO-31 renal: `O=C(O)c1c2c(cc3c1CC1(Cc4ccccc4C1)C3)CCC2`
Response: > 100 µM

Query: Return TGI measured with UO-31 renal given this compound: `CCN(CC)c1c(C(=O)/C=C/c2ccccc2)c(-c2ccccc2)nn(C)c1=O`
Response: > 100 µM

Query: Field: TGI (UO-31 renal). Entry: CN1C(=O)N(c2ccccc2)C2(CCN(CC3COc4ccccc4O3)CC2)C1=O (configuration not stated)
Response: > 100 µM

Query: Given the entry O=NN(Cc1ccc(Cl)cc1)C(C(=O)O)c1ccccc1 (configuration not stated) , what TGI was observed with UO-31 renal?
Response: > 100 µM

Query: For the record O=C(O)c1cc2c(cc1CC(Cc1ccc3c(c1)CCC3)C(=O)O)CCC2 (configuration not stated) , what value of TGI is listed for UO-31 renal?
Response: > 100 µM

----------
# System: A498 renal
# run description: NCI tumour cell line growth inhibition, 48 h
Task for the reader: assign each of the following molecules its reported TGI.

Query: Entry `CN(C)/N=N/c1nc2c(c(=O)n(C)c(=O)n2C)n1C` : reported TGI = ?
Response: > 100 µM

Query: // TGI lookup, key: CN(C)CCCOc1nc2c(c(=O)n(C)c(=O)n2C)n1C (tested in a mixture with another compound)
Response: > 100 µM

Query: Name the recorded TGI for `COc1ccccc1N/C(=C\C(=O)C(=O)NC12CC3CC(CC(C3)C1)C2)c1ccccc1` .
Response: > 10 µM

----------
# Test system: KM20L2 colon
# run description: NCI tumour cell line growth inhibition, 48 h
observable: TGI

Query: Could you share which TGI value was measured for COc1ccc(C2Oc3c(cc(O)c(OC)c3C)[C@@H]2C)cc1OC (stereo partly specified) ?
Response: > 100 µM

Query: # TGI lookup, item `Cc1cc2c(cc1C)[n+](=O)c(C(=O)CC(=O)C(=O)Nc1c(C(C)C)cccc1C(C)C)c(C)n2[O-]`
Response: > 100 µM

Query: Which TGI is listed for `C=C(C(=O)C(=O)Oc1ccc(Cl)cc1)C(=O)c1ccc(C)cc1` ?
Response: > 100 µM

Query: Dear colleague, I am looking for the recorded TGI of the following compound: OCc1ccc2[n+](c1)CCC1c3ccccc3NC21 (stereo unspecified)
Response: > 300 µM

Query: Field request: TGI | item: COC(=O)CC(C(C(=O)OC)C(=O)OC)N1C(=O)OCC1c1ccccc1 (stereo unspecified)
Response: > 100 µM

Query: Endpoint output: TGI of `Cn1cc2ccccc2c1-c1nc(N)nc(F)n1` . Value?
Response: > 100 µM

----------
# Tested on: SF-295 CNS
# run description: NCI tumour cell line growth inhibition, 48 h; in the data active means GI50 below about 0.43 µM; inactive means the rest
Write down the outcome that applies. Available outcomes: true for active, false for inactive

Query: So what was the verdict on `CCNCCNc1cc(-c2ccc(C(=O)OC)cc2)c(C#N)c2nc3ccccc3n12` in this test?
Response: false

Query: Which outcome did this test record for the molecule `O=C1/C(=C/c2ccc(Br)cc2)C=C(c2ccccc2)N1CCc1ccccc1` ?
Response: true

Query: Call for entry `COc1ccc2c(c1)c(-c1nc(-c3cn(C)c4ncccc34)cs1)cn2CCCN1CCCCC1` :
Response: false

Query: Hi, do you know how `O=C(c1ccco1)c1nc2ccc(C(F)(F)F)cc2[n+]([O-])c1C(F)(F)F` came out in this test?
Response: false

Query: I would be grateful if you could indicate the recorded call for O=C(NCCOCCOCCNc1cccc2c1C(=O)N(C1CCCNC1=O)C2=O)c1cc2c(o1)C(=O)c1ccccc1C2=O (stereo not given) .
Response: false

----------
# System: NCI-H226 lung
# run description: NCI tumour cell line growth inhibition, 48 h
Give TGI for every item shown.

Query: # query: TGI of entry `CC(C)Sc1nc(C#N)cc2c1CCCC2`
Response: > 100 µM

Query: Query (compound): `CN(C)/N=N/c1nc2c(c(=O)n(C)c(=O)n2C)n1C` ; field requested: TGI
Response: > 100 µM

Query: Name the recorded TGI for `Cc1nc2cccc([N+](=O)[O-])c2c(NCCCN(C)C)c1C` .
Response: > 90.4 µM

Query: Entry under review: `C[C@@]12[C@H]3CC[C@@H]1[C@H](O)C(=O)N2CC3` . Reported TGI?
Response: > 100 µM

Query: Which measured TGI value corresponds to C[N+]1=C2[B-](C(C)(C)C)=[N+](C(C)(C)C)[B-]2(C(C)(C)C)[N+](C)=C2[B-](C(C)(C)C)=[N+](C(C)(C)C)[B-]21C(C)(C)C (stereo not drawn) ?
Response: > 100 µM

Query: Given the compound `Nc1ccc2nc(-c3ccccn3)c(-c3ccccn3)nc2c1` , what is its reported TGI?
Response: > 100 µM

Query: Please give the measured TGI for this compound: CSc1ccc(C2=NN(C(C)=O)C(c3cc(C)cs3)C2)cc1 (stereo not drawn)
Response: > 100 µM

Query: Consider the compound shown here: `COc1ccc2[nH]c3c(C)c4c(c(C)c3c2c1)CN(C)CC4` What is its recorded TGI?
Response: 30.8 µM

Query: What does the record list as TGI for `COc1ccccc1Nc1nc(N)nc(N)c1N=O` ?
Response: > 100 µM

Query: Can you share its TGI? I mean this compound: CN1C(=O)N(c2ccccc2)C2(CCN(CC3COc4ccccc4O3)CC2)C1=O (stereo not drawn)
Response: > 100 µM

Query: Need TGI of CCN1CC2=C(NC(=S)NC2c2ccc(Cl)cc2)/C(=C/c2ccc(Cl)cc2)C1 (stereo not drawn) , thanks.
Response: > 100 µM

Query: Given CCCCCCCCCC[C@@H](O)[C@@H]1CC[C@H]([C@H]2CC[C@@H]([C@@H](O)CCCCCCCCCC[C@H]3CC(CC(C)=O)C(=O)O3)O2)O1 (stereo partly drawn) , state its recorded TGI.
Response: 20.2 µM

Query: // returns reported TGI for input `COc1cc(OC)cc(-c2ccc(-c3ccc(C(=N)N)o3)o2)c1`
Response: 44.6 µM

Query: # query: TGI of entry CN(C)CCCOc1nc2c(c(=O)n(C)c(=O)n2C)n1C (tested in a mixture with another compound)
Response: 47.7 µM

Query: Quick one: TGI of `O=C1NNC=Nc2ccc(cc2)S(=O)(=O)c2ccc(cc2)N=CNNC1=O` ?
Response: > 100 µM

Query: Request the reported TGI associated with `Cc1cc(N(CCC#N)CCC#N)ccc1/C=N/NC(=O)c1cc(Cl)ccc1O`
Response: > 100 µM

Query: Return reported TGI; argument: COc1ccc(-c2cc(-c3ccco3)c(C#N)c(=S)n2C2OC(COC(C)=O)C(OC(C)=O)C(OC(C)=O)C2OC(C)=O)cc1 (stereo not drawn)
Response: 16.5 µM

Query: Using the record for `COc1ccc(-n2c(=O)c3[nH]cnc3n(-c3ccc(OC)cc3)c2=S)cc1` , report its TGI.
Response: > 100 µM

Values were extracted from PubChem BioAssay (NCI).
